Reference source: paper PMC6256112

Biological target: hCB1 (Homo sapiens, UniProt P21554)
Construct: expressed in transfected cells; host or cells: HEK (membranes)
Sequence (P21554 whole entry): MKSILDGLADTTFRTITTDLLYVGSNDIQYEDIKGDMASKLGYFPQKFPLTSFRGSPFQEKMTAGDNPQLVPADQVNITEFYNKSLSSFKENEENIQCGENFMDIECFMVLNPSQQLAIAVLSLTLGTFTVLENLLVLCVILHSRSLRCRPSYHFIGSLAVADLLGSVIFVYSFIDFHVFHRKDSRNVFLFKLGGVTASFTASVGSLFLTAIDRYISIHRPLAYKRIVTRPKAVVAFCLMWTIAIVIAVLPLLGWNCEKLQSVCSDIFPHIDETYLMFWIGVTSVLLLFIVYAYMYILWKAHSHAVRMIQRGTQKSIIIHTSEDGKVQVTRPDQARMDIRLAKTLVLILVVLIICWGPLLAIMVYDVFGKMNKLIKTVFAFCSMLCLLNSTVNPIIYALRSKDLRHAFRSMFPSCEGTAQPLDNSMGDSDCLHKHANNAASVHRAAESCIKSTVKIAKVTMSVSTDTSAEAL
Experiment: Radioligand competition binding screen with [3H]-CP 55,940 on hCB1-expressing HEK membranes
Conditions: from CB1 binding at 10 μM versus CB2 affinity

entry smiles	CB2 selectivity over CB1 (in words)
CCOc1nc(NC23CC4CC(CC(C4)C2)C3)nc(N2CCN(C)CC2)n1	somewhat CB2-selective
CCOc1nc(NC23CC4CC(CC(C4)C2)C3)nc(N2CCN(CCF)CC2)n1	somewhat CB2-selective

====

Target: hCB1 (Homo sapiens, UniProt P21554)
Construct: expressed in transfected cells; host or cells: HEK (membranes)
Test: Radioligand competition binding screen with [3H]-CP 55,940 on hCB1-expressing HEK membranes
Conditions: 10 μM compound; displacement of 0.75 nM [3H]-CP 55,940
measurement name: CB1 binding extent at 10 μM (%) (±SEM)

Exercise: Entry CCCCCCC(C)(C)c1ccc([C@@H]2C[C@H](O)CC[C@H]2CCCO)c(O)c1 [CP 55,940, reference compound] needs its CB1 binding extent at 10 μM (%) (±SEM) filled in; supply it.
Key: 100.0 (0.0) %

Exercise: Consider the compound CCOc1nc(NC23CC4CC(CC(C4)C2)C3)nc(N2CCNCC2)n1 and give its recorded CB1 binding extent at 10 μM (%) (±SEM).
Key: 13.7 (4.1) %

Exercise: Item CCOc1nc(NC23CC4CC(CC(C4)C2)C3)nc(N2CCN(CCOCCOCCN)CC2)n1 : provide CB1 binding extent at 10 μM (%) (±SEM)
Key: 29.6 (7.6) %

Exercise: Look up CB1 binding extent at 10 μM (%) (±SEM) of CCOc1nc(NC23CC4CC(CC(C4)C2)C3)nc(N2CCN(CCOCCOCCNC(=O)OC(C)(C)C)CC2)n1 and report it.
Key: 16.7 (7.8) %
